- System: Toxoplasma gondii
- EXPERIMENTAL_PROTOCOL: Antiparasitic activity against Toxoplasma gondii expressing beta-galactosidase infected in HFF assessed as parasite growth inhibition after 72 hrs
- Assay type: functional, organism-based
Listed here: items and their measured EC50.
REPORTED_PROPERTY: EC50 (nM)

>>> recorded_number("CO[C@@H]1C(=O)O[C@H](C)[C@H](C)/C=C(\\C)C[C@H](C)C(=O)N[C@@H](C)C(=O)N(C)[C@H](Cc2c[nH]c3ccccc23)C(=O)N[C@H]1c1ccc(C)cc1")
530
>>> recorded_number("CO[C@@H]1C(=O)O[C@H](C)[C@H](C)/C=C(\\C)C[C@H](C)C(=O)N[C@@H](C)C(=O)N(C)[C@H](Cc2c[nH]c3ccccc23)C(=O)N[C@H]1c1ccc(N)cc1")
660
>>> recorded_number("CO[C@@H]1C(=O)O[C@H](C)[C@H](C)/C=C(\\C)C[C@H](C)C(=O)N[C@@H](C)C(=O)N(C)[C@H](Cc2c[nH]c3ccccc23)C(=O)N[C@H]1c1ccc(CCO)cc1")
600

Recorded values, source ChEMBL document CHEMBL2424601.
